The origin of these recorded values is ChEMBL document CHEMBL5346869.

Molecular target: RAC-alpha serine/threonine-protein kinase (Homo sapiens)
Sequence (P31749 whole entry): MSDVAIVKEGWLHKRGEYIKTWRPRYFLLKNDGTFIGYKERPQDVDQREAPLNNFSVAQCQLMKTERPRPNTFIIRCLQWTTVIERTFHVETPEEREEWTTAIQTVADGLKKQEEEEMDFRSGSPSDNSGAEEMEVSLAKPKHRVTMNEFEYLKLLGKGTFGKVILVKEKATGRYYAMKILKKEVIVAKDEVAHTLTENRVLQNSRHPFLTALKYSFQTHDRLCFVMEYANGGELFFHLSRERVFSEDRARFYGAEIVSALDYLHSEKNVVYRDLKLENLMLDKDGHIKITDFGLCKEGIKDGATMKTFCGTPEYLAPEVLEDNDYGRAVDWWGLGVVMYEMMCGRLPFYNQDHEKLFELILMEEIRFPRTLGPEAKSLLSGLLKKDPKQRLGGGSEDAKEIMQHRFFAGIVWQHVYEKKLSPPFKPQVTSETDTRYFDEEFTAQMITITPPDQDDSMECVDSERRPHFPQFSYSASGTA
Test: Inhibition of PKB phosphorylation in human SK-OV-3 cells incubated for 1 hrs by ELISA
Assay type: cell-based
Readout Type: pIC50
// pIC50 here means minus log10 of the molar concentration (mol/L)

Query: Read the entry COc1ccc(C(=O)NNC(=O)c2cc3nc(-c4cnc(N)nc4)nc(N4CCOCC4)c3s2)cc1 and write its reported pIC50.
Result: 8.42
